src = ChEMBL document CHEMBL1201862

target: UniProt:P24666; type: functional; conditions: read-out: IC50_Mean
Sequence (P24666 whole entry): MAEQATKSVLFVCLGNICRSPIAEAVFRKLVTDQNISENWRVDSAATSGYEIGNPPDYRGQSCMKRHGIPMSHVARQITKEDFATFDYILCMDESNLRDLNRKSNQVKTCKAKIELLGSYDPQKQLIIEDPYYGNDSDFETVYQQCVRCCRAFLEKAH
Activity calls are given as the source filed them.
measured attribute: IC50

These solved cases illustrate the format of a correct answer.
> print(dat)
                                   molecule     test.system  recorded.measurement
1  COc1ccc(/C(C)=N/NC(=O)c2nnn(-c3nonc3N)c2-c2ccccc2)cc1  UniProt:P24666    35.2 µM (inactive)
2            CSc1sc(-c2nnc(S)n2C)c2c1C=CCC2  UniProt:P24666    38.2 µM (inactive)
3  COc1cccc(N2CCN(C(=O)c3ccc(CSc4nc5cc[nH]cc-5n4)cc3)CC2)c1  UniProt:P24666      14.3 µM (active)

Return IC50 for the following molecule: Cc1ccc(C(=O)NNC(=O)CSc2n[nH]c3c4cc(F)ccc4nc-3n2)cc1
17.5 µM (active)

====

Catalogue of molecules with associated EC50
test: cells; assay type: functional, cell-based
The source made the active and inactive calls.

> print(dat)
                                   molecule  measured.attribute   recorded.measurement
1     COc1ccc(C(=O)N/N=C/c2cccc3cccnc23)cc1                EC50       15.5 µM (active)
2  Cc1ccc(/C=C(\C#N)c2nn(-c3ccccc3)c(N)c2C#N)cc1                EC50  > 350 µM (not active)
3    CCn1nc(C(=O)OCC(=O)NC(C)C)c2ccccc2c1=O                EC50  > 350 µM (not active)
4  O=C(N/N=C/c1cc([N+](=O)[O-])ccc1O)c1cccc2cc[nH]c12                EC50        311 µM (active)

Okay, next one:
Return EC50 for the following molecule: CC1CCN(Cc2c(C(=O)N/N=C/c3cc(Cl)ccc3O)nnn2-c2nonc2N)CC1
10.7 µM (active)

====

Target: UniProt:Q07440
Sequence (Q07440 whole entry): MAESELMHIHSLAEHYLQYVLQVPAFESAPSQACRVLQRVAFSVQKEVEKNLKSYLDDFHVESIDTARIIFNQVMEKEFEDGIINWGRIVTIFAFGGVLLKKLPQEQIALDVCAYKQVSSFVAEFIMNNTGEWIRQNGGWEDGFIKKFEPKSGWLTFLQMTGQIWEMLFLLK
Test: Bfl-1 binding inhibitors, SAR follow-up, biochemical, fluorescence polarization (AID 1070)
Active and inactive are the calls of the source.
measured attribute: IC50

These solved cases illustrate the format of a correct answer.
> print(dat)
                                   molecule     test.system   recorded.measurement
1  Cc1cccc(N2C(=O)C(Cl)=C(N3CCN(CCO)CC3)C2=O)c1  UniProt:Q07440       12.3 µM (active)
2  O=C1C(Cl)=C(Nc2ccccc2)C(=O)N1c1ccc(Cl)c(Cl)c1  UniProt:Q07440  > 100 µM (not active)
3  O=C1C(Cl)=C(N2CCN(c3ncccn3)CC2)C(=O)N1c1ccc(Cl)c(Cl)c1  UniProt:Q07440        1.9 µM (active)

Okay, next one:
Return IC50 for the following compound: CS(=O)(=O)c1nc(-c2ccccc2)cc(-c2ccccc2)n1
> 100 µM (not active)

====

Catalogue of compounds with associated IC50
biological target: Cysteine protease ATG4B (Homo sapiens, UniProt Q9Y4P1); type: functional;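 also: Fluorescence-based dose-response confirmation assay measuring inhibition of ATG4B activity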
Sequence (Q9Y4P1 whole entry): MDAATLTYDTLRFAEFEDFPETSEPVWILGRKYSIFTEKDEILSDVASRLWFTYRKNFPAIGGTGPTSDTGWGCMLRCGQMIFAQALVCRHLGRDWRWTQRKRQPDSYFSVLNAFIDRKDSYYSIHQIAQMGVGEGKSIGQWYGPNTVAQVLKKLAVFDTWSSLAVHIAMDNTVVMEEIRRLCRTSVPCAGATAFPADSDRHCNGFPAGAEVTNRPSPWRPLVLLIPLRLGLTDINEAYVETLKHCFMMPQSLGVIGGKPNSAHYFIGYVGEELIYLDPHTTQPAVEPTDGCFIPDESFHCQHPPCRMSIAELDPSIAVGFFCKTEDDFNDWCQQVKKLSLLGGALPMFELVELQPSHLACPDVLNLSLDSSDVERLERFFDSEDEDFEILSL
The source made the active and inactive calls.

These solved cases illustrate the format of a correct answer.
> print(dat)
                                   compound  recorded.measurement
1       Cc1c(C)c(C)c(CO/N=C/c2cccs2)c(C)c1C      17.4 µM (active)
2  COc1ccc(-c2[nH]nc3c2C(c2ccc(OC(=O)N4CCOCC4)cc2)C(C#N)=C(N)O3)cc1 (stereo not given)      18.3 µM (active)
3         O=C(c1ccccc1)c1cnc(Nc2ccccc2Cl)s1      11.5 µM (active)
4  CCCCn1c(SCC(=O)Nc2cc(C)n[nH]2)nc2ccsc2c1=O      12.2 µM (active)

Okay, next one:
Return IC50 for the following compound: Cc1ccccc1NC1=NC(=O)/C(=C/c2cccn2-c2cccc(C(=O)O)c2)S1
10.2 µM (active)

====

Catalogue of compounds with associated EC50
test: luciferase reporter signal suppression in cells – H4 neuroglioma cells, luminescence, dose response (AID 1990); type: functional, cell-based
Calls of active or inactive are those of the source.

> print(dat)
                                   compound  measured.attribute   recorded.measurement
1  Cc1ccc(S(=O)(=O)NNC(=O)c2ccccc2-n2cccc2)cc1                EC50  > 120 µM (not active)
2  CC(Oc1cccc(Cl)c1)C(=O)Nc1nc(-c2ccccn2)cs1 (stereo not given)                EC50       10.4 µM (active)
3  COc1ccc(/C=C2/SC(=S)N(CCCC(=O)Nc3ccccc3C(=O)O)C2=O)cc1                EC50         11 µM (active)
4  CCOC(=O)N1CCN(S(=O)(=O)c2ccc(C(=O)Nc3ccc(F)cc3F)cc2)CC1                EC50       10.9 µM (active)

Return EC50 for the following compound: CC1CCc2c(sc(NC(=O)CSc3nc[nH]n3)c2C#N)C1 (stereo not given)
< 0.1 µM (active)

====

experiment: fluconazole-exposed Candida albicans growth modulators – fluorescence, retest, confirmation (AID 2467); assay type: functional, cell-based
Active and inactive are the calls of the source.
measured attribute: EC50

These solved cases illustrate the format of a correct answer.
> print(dat)
                                   molecule     recorded.measurement
1  CC1CCN(Cc2c(C(=O)N/N=C/c3cc(Cl)ccc3O)nnn2-c2nonc2N)CC1          508 nM (active)
2           CCSc1nnc(-c2ccc(C)cc2)c2ccccc12          305 nM (active)
3                 C=C(C)CSc1nc(O)cc(C)c1C#N         1860 nM (active)
4                Oc1ccc(CN2CCCCC2)c2cccnc12  > 38000 nM (not active)
5  CN(C)S(=O)(=O)c1cccc(NC(=S)N/N=C/c2cc(Br)ccc2O)c1         2830 nM (active)

Return EC50 for the following compound: COc1cccc(N=Nc2ccc3cccnc3c2O)c1
619 nM (active)

====

test system: INS1; assay: INS-1E survival protection against cytokine death – cell-based, luminescence, retest, dose response (AID 449756); format: functional; details: Rattus norvegicus;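 also: cell death triggered by IL-1 beta plus TNF-alpha plus IFN-gamma mixture; protective hits raise ATP signal compared with cytokine alone wells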
The source made the active and inactive calls.
Catalogue of compounds with associated AC50

These solved cases illustrate the format of a correct answer.
> print(dat)
                                   molecule  measured.attribute  recorded.measurement
1  COc1ccc(N/N=C(/N=Nc2nc(C)cc(O)n2)c2ccccc2)cc1                AC50   < 0.195 µM (active)
2        COC1=C(Nc2ccccc2)C(=O)c2ccccc2C1=O                AC50      5.64 µM (active)
3   CC1=NOC(=O)/C1=C/c1ccc(-c2ccc(Cl)cc2)o1                AC50      6.76 µM (active)

Return AC50 for the following compound: CN(C)S(=O)(=O)c1cccc(NC(=S)N/N=C/c2cc(Br)ccc2O)c1
0.481 µM (active)

Return AC50 for the following compound: O=C(NCc1nc2ccccc2[nH]1)C1=C[C@@H](C2CCCCC2)C[C@@H](OCc2ccc(CO)cc2)O1
13.1 µM (active)

====

molecular target: Voltage-dependent T-type calcium channel subunit alpha-1H (Homo sapiens); format: functional;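 also: channel activity triggered by adding a high calcium stimulation buffer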
Sequence (O95180 whole entry): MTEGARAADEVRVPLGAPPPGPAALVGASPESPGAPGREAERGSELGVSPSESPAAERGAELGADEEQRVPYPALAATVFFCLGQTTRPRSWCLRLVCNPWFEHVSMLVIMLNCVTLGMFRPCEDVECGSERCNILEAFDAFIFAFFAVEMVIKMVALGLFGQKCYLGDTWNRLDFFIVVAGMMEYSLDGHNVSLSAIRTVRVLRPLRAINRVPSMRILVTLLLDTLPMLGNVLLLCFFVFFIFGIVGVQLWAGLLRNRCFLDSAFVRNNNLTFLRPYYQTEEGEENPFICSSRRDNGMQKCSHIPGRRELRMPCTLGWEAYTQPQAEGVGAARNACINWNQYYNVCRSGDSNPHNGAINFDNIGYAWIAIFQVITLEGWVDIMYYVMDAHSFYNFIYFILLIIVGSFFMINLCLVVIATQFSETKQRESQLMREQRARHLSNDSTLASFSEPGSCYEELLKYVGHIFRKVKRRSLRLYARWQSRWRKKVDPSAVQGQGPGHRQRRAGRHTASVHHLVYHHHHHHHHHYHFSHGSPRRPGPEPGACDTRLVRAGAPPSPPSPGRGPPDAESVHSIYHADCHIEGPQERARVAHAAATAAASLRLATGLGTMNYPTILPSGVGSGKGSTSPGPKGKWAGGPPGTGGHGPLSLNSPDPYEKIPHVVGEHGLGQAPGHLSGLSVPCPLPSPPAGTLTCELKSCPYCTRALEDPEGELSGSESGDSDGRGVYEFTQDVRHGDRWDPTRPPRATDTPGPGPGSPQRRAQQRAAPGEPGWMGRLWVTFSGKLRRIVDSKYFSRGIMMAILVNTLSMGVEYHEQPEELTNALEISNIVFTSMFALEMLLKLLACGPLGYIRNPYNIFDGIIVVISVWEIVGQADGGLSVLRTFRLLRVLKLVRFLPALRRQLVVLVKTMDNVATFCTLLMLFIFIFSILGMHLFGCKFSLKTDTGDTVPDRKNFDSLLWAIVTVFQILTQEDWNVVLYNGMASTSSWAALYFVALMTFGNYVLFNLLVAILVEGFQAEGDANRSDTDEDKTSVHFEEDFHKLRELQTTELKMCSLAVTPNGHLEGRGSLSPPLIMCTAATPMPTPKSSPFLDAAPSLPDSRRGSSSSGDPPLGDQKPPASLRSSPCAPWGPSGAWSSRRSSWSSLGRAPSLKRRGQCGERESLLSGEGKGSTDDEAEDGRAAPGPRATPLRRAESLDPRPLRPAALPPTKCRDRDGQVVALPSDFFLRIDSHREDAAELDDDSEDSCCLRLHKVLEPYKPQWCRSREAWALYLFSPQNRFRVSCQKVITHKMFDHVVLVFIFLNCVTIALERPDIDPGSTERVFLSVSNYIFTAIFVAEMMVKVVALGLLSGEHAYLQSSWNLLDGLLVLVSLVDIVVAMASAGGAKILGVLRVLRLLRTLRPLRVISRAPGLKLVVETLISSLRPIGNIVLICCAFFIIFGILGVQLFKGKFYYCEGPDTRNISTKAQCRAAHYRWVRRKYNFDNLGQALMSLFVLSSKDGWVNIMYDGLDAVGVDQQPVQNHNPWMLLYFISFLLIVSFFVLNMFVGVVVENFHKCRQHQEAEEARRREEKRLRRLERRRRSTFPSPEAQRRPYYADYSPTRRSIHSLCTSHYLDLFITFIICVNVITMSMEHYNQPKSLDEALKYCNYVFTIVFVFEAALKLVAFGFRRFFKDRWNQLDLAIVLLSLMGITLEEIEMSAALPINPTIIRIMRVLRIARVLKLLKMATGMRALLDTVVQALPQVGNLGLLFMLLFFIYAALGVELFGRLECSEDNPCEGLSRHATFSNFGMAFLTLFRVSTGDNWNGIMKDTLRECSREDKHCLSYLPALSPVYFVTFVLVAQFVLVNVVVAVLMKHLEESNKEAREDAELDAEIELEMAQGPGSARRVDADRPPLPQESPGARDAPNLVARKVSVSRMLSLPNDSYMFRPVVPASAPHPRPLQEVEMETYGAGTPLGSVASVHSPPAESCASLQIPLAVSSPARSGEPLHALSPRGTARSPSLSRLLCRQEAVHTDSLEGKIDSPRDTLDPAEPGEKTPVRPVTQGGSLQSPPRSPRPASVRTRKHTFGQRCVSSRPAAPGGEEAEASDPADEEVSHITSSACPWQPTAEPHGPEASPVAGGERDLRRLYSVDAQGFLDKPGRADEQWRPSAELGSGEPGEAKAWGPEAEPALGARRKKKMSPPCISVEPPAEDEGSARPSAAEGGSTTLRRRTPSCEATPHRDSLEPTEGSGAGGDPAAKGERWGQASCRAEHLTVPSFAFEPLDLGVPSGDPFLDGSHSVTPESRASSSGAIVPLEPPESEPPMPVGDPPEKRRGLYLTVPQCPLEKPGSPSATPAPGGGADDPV
The source made the active and inactive calls.
measured attribute: EC50

These solved cases illustrate the format of a correct answer.
> print(dat)
                                   molecule  recorded.measurement
1    O=C(CCCOc1ccccc1)N1CCN(c2ccc(F)cc2)CC1      4.49 µM (active)
2  COc1cccc(C(=O)N(Cc2nc(-c3cccc(C)c3)no2)C(C)C)c1OC      12.7 µM (active)
3              c1ccc(Nc2nc(-c3cccs3)cs2)nc1      9.21 µM (active)
4     O=C(CCNc1ccc(Cl)c(C(F)(F)F)c1)c1ccco1      9.96 µM (active)
5  Cc1cc(C)cc(N(CC(=O)NCc2ccc3c(c2)OCO3)C(=O)CCC(=O)Nc2ccccn2)c1      2.74 µM (active)

Okay, next one:
Return EC50 for the following compound: COc1ccc(S(=O)(=O)N2CCC(C(=O)N3CCc4ccccc4C3)CC2)cc1C
4.51 µM (active)
